Please respond with reported normalised viability for every item in the list.
System: MFM-223
experiment summary: normalised viability (% of control), CellTiter-Blue; higher = more viable cells (100 = DMSO, 0 = benzethonium chloride kill control)
assay context: incubation time: 72 h
Give bare numbers, in %.

COc1c2occc2cc2ccc(=O)oc12 [Methoxsalen] (1 nM)    93.1
CC(C)C[C@H](NC(=O)[C@@H](COC(C)(C)C)NC(=O)[C@H](Cc1ccc(O)cc1)NC(=O)[C@H](CO)NC(=O)[C@H](Cc1c[nH]c2ccccc12)NC(=O)[C@H](Cc1cnc[nH]1)NC(=O)[C@@H]1CCC(=O)N1)C(=O)N[C@@H](CCCNC(=N)N)C(=O)N1CCC[C@H]1C(=O)NNC(N)=O [Goserelin] (1 nM)    96
CC(C)(C)NC(=O)[C@H]1CC[C@H]2[C@@H]3CC[C@H]4NC(=O)C=C[C@]4(C)[C@H]3CC[C@]12C [Finasteride] (1 nM)    96.4
CNC(=O)c1ccccc1Sc1ccc2c(/C=C/c3ccccn3)n[nH]c2c1 [Axitinib] (1 nM)    95.5
Nc1ccn([C@@H]2O[C@H](CO)[C@@H](O)C2(F)F)c(=O)n1 [Gemcitabine] (0.1 nM)    101

Entry CCN(CC)CCCC(C)Nc1ccnc2cc(Cl)ccc12 (stereo unspecified) [Chloroquine] (0.099 nM) ; normalised viability = 102

Entry source: the supplement of paper PMC4862054
